Assay: Probe fluorescence ratio response to linolenic acid relative to ADIFAB2
Assay type: binding
Conditions: response relative to ADIFAB2
Text: In an alternate preferred embodiment, the protein is rI-FABP that has Ala substituted for Leu at position 72 (rI-FABP-L72A) with the resulting probe named ADIFAB2. […] ADIFAB2 also has an altered spectral response, making it especially useful for measurements of FFAu in blood samples (Apple et al, Clinical Proteomics, (2004) 1:41-44, U.S. patent application Ser. No. 10/670,958). […] The baseline value for this ratio, measured in the absence of analyte, is designated R0. […]
ASSAY_READOUT: DR/DR LNA

1. 38W 106H 117A 72A (protein, listed as Rattus norvegicus, PEPTIDE (1)...(131) wild-type rat intestinal fatty acid binding protein) AFDGTWKVDRNENYEKFMEKMGINVVKRKLGAHDNLKWTITQEGNKFTVKESSNFRNIDVVFELGVDFAYSAADGTELTGTWTMEGNKLVGKFKRVDNGKELIAVHEISGNELIQTATYEGVEAKRIFKKE | 1.397
2. 115P1, 72A (protein, listed as Rattus norvegicus, PEPTIDE (1)...(131) wild-type rat intestinal fatty acid binding protein) AFDGTWKVDRNENYEKFMEKMGINVVKRKLGAHDNLKLTITQEGNKFTVKESSNFRNIDVVFELGVDFAYSAADGTELTGTWTMEGNKLVGKFKRVDNGKELIAVREISGNELIPTYTYEGVEAKRIFKKE | 1.35

Note: attention shifts to another entry.
QUERY: Given the molecule 72A 73P 74V (protein, listed as Rattus norvegicus, PEPTIDE (1)...(131) wild-type rat intestinal fatty acid binding protein) AFDGTWKVDRNENYEKFMEKMGINVVKRKLGAHDNLKLTITQEGNKFTVKESSNFRNIDVVFELGVDFAYSAPVGTELTGTWTMEGNKLVGKFKRVDNGKELIAVREISGNELIQTYTYEGVEAKRIFKKE , what is its reported DR/DR LNA?
RESULT: 2.845

FYI, the data here is from patent US20060257938A1.
